Tested on: LCLC-103H
Assay: relative viability (nuclei count vs DMSO), 5 days (fraction); higher = more cells survive
Conditions: first compound 20 µM
Quantity Measured: relative viability
Please give only the number in your answer, with no unit.

These recorded examples may help you get a feel for the data.
COCC1(CO)C(=O)C2CCN1CC2 (configuration not stated) [PRIMA-1MET] + NC(=O)Nc1cc(-c2cccc(F)c2)sc1C(=O)N[C@H]1CCCNC1 [AZD7762] (partner 0.2 µM); 0.756
COCC1(CO)C(=O)C2CCN1CC2 (configuration not stated) [PRIMA-1MET] + CCNC(=O)c1noc(-c2cc(C(C)C)c(O)cc2O)c1-c1ccc(CN2CCOCC2)cc1 [Luminespib] (partner 0.01 µM); 0.307
COCC1(CO)C(=O)C2CCN1CC2 (configuration not stated) [PRIMA-1MET] + CC(=O)Nc1cccc(-n2c(=O)n(C3CC3)c(=O)c3c(Nc4ccc(I)cc4F)n(C)c(=O)c(C)c32)c1 [Trametinib] (partner 0.02 µM); 0.709
COCC1(CO)C(=O)C2CCN1CC2 (configuration not stated) [PRIMA-1MET] + C[C@]1(O)C[C@@H](c2nc(-c3ccc4ccc(-c5ccccc5)nc4c3)c3c(N)nccn32)C1 [Linsitinib] (partner 1 µM); 1.1
COCC1(CO)C(=O)C2CCN1CC2 (configuration not stated) [PRIMA-1MET] + CS(=O)(=O)N1CCN(Cc2cc3nc(-c4cccc5[nH]ncc45)nc(N4CCOCC4)c3s2)CC1 [Pictilisib] (partner 1 µM); 0.478
COCC1(CO)C(=O)C2CCN1CC2 (configuration not stated) [PRIMA-1MET] + O=C(c1cc(Cc2n[nH]c(=O)c3ccccc23)ccc1F)N1CCN(C(=O)C2CC2)CC1 [Olaparib] (partner 8 µM); 0.703

Look up and state reported relative viability for COCC1(CO)C(=O)C2CCN1CC2 (configuration not stated) [PRIMA-1MET] + COc1cccc2cc(-c3nc([C@H]4CC[C@H](C(=O)O)CC4)n4ncnc(N)c34)[nH]c12 [OSI-027] (partner 0.5 µM) 0.409

Taken from the supplement of paper PMC10307832.
